test: Serum stability assay; assay type: in vitro ADME; conditions: human serum of healthy donors, lipids removed by centrifugation, 37 °C, peptide 30-60 μM from 10-fold stock in PBS, followed over 48 h, urea/TFA quench, analytical RP-HPLC peak area vs time 0, one-phase decay fit; mean ± SD, n = 2 (pepitem n = 5); read-out: Serum t 1/2 (converted)
No end group written: not given here.
measured metric: half-life

input: Which half-life value is on record for SVTEQGAELSNEER [Pepitem, reference compound] ?
output: ~3 h
